Reported interaction score values are given for each entry in this list.
# tested target: T1, 4H953-bA
# T1 chain: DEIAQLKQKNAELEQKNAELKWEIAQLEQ
# measurement notes: two-hybrid library CCNG1;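 also: natural log of median RNA to DNA barcode read ratio; higher means stronger binding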
measured metric: interaction score

binder | measured metric | reported measurement
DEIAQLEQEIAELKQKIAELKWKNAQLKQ [4H112-bA] | interaction score | 0.0535
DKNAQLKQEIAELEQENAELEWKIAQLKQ [4H3606-bA] | interaction score | 0.309
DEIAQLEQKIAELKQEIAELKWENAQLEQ [4H331-bA] | interaction score | -1.28
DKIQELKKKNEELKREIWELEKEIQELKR [4H3010-bH] | interaction score | -0.817
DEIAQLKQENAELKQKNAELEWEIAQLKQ [4H754-bA] | interaction score | 0.496
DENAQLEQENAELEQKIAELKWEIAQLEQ [4H1193-bA] | interaction score | -1.01
